The reported measurements were obtained from patent US20250188085A1.

Please provide measured IC50 for the entries that follow.
- target: Avi-KRAS G12C (1-169) GppNHp/RAF1 RBD-3×FLAG (52-151) (Homo sapiens, UniProt P01116, G12C)
- Construct: Avi-KRAS G12C (1-169) GppNHp/RAF1 RBD-3×FLAG (52-151)
- Sequence (P01116 1-169 isoform P01116-2 G12C limits assumed): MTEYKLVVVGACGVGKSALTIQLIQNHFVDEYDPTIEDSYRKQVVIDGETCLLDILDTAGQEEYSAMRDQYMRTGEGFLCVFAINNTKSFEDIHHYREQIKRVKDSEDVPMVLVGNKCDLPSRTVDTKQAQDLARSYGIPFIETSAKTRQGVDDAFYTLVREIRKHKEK
- measurementDescription: Raf1 RBD-KRAS G12C-GppNHp disruption (protein:protein interaction HTRF assay)

Kindly note the recorded IC50 for C=CC(=O)N1CC(Oc2nc(OC[C@@]34CCCN3C[C@H](F)C4)nc3c(F)c(-c4ccc(F)c5sc(N)nc45)c(C(F)(F)F)cc23)[C@@H](C)C1 (some centres unmarked) [Compound 35] , which is 500 to 5000 nM

Kindly note the recorded IC50 for C=CC(=O)N1CC[C@@H](Oc2nc(OC[C@@]34CCCN3C[C@H](F)C4)nc3c(F)c(-c4ccc(F)c5sc(N)c(C#N)c45)c(C(F)(F)F)cc23)C1 [Compound 46] , which is ≤ 500 nM

Kindly note the recorded IC50 for C=CC(=O)N1CC[C@@H](Oc2nc(OC[C@@]34CCCN3C[C@H](F)C4)nc3c(F)c(-c4ccc(F)c5sc(N)c(C#N)c45)c(C(F)(F)F)cc23)[C@H]1COC (atropisomer, axis not shown) [Compound 95] , which is ≤ 500 nM

Kindly note the recorded IC50 for C=CC(=O)N1CC[C@@H](Oc2nc(OC[C@@]34CCCN3C[C@H](F)C4)nc3c(F)c(-c4ccc(F)c5sc(N)c(C#N)c45)c(C(F)(F)F)cc23)[C@H]1CC [Compound 114] , which is ≤ 500 nM

Kindly note the recorded IC50 for C=CC(=O)N1CC[C@@H](Oc2nc(OC[C@@H]3C[C@@H](OC)CN3C)nc3c(F)c(-c4ccc(F)c5sc(N)nc45)c(C(F)(F)F)cc23)C1 (single isomer, unassigned) [Compound 14] , which is ≤ 500 nM

====

- target: Avi-KRAS G12C (1-169) GppNHp/RAF1 RBD-3×FLAG (52-151) (Homo sapiens, UniProt P01116, G12C)
- Construct: Avi-KRAS G12C (1-169) GppNHp/RAF1 RBD-3×FLAG (52-151)
- measurementDescription: Raf1 RBD-KRAS G12C-GppNHp disruption (protein:protein interaction HTRF assay)
Please provide measured IC50 for the entries that follow.

Value sought: IC50, system Avi-KRAS G12C (1-169) GppNHp/RAF1 RBD-3×FLAG (52-151) (Homo sapiens, UniProt P01116, G12C), item C=CC(=O)N1C[C@H](Oc2nc(OC[C@@]34CCCN3C[C@H](F)C4)nc3c(F)c(-c4ccc(F)c5sc(N)nc45)c(C(F)(F)F)cc23)C[C@H]1C (atropisomer, axis not shown) [Compound 37] . Result: ≤ 500 nM

Value sought: IC50, system Avi-KRAS G12C (1-169) GppNHp/RAF1 RBD-3×FLAG (52-151) (Homo sapiens, UniProt P01116, G12C), item C=CC(=O)N1CC(Oc2nc(OC[C@@H]3CCCN3C)nc3c(F)c(-c4ccc(F)c5sc(N)nc45)c(Cl)cc23)C1 . Result: 500 to 5000 nM

Value sought: IC50, system Avi-KRAS G12C (1-169) GppNHp/RAF1 RBD-3×FLAG (52-151) (Homo sapiens, UniProt P01116, G12C), item C=CC(=O)N1CC[C@@H](Oc2nc(OC[C@@H]3CC(C)(C)CN3C)nc3c(F)c(-c4ccc(F)c5sc(N)nc45)c(C(F)(F)F)cc23)C1 (atropisomer, axis not shown) [Compound 17] . Result: > 20000 nM

Value sought: IC50, system Avi-KRAS G12C (1-169) GppNHp/RAF1 RBD-3×FLAG (52-151) (Homo sapiens, UniProt P01116, G12C), item C=CC(=O)N1CC[C@@H](Oc2nc(OC[C@@]34CCCN3C[C@H](F)C4)nc3c(F)c(-c4ccc(F)c5sc(N)c(C#N)c45)c(Cl)cc23)[C@H]1COC . Result: 500 to 5000 nM

Value sought: IC50, system Avi-KRAS G12C (1-169) GppNHp/RAF1 RBD-3×FLAG (52-151) (Homo sapiens, UniProt P01116, G12C), item C=CC(=O)N1CC[C@@H](Oc2nc(OC[C@@]34CCCN3C[C@H](F)C4)nc3cc(-c4ccc(F)c5sc(N)c(C#N)c45)ccc23)[C@H]1C . Result: ≤ 500 nM

====

Please provide measured IC50 for the entries that follow.
- target: Avi-KRAS G12C (1-169) GppNHp/RAF1 RBD-3×FLAG (52-151) (Homo sapiens, UniProt P01116, G12C)
- Construct: Avi-KRAS G12C (1-169) GppNHp/RAF1 RBD-3×FLAG (52-151)
- measurementDescription: Raf1 RBD-KRAS G12C-GppNHp disruption (protein:protein interaction HTRF assay)
- Experimental: A protein: protein (PPI) interaction Homogeneous Time Resolved Fluorescence (HTRF) assay was used to determine the effectiveness of compounds of the present disclosure in disrupting KRAS G12C protein and effector (RAF1 or PIK3CA) binding. […] Plates were analyzed on an Envision plate reader using the following setting: Excitation 320 nm, Bandwidth 75 nm; Emission 615 nm, Bandwidth 85 nm; Gain 100%; Flashes 100; Lag 60 μs. […] Data was plotted and analyzed using Prism 8.

Kindly note the recorded IC50 for C=CC(=O)N1C[C@H](Oc2nc(OC[C@@]34CCCN3C[C@H](F)C4)nc3c(F)c(-c4ccc(F)c5sc(N)nc45)c(C(F)(F)F)cc23)C[C@H]1CO , which is ≤ 500 nM

Kindly note the recorded IC50 for C=CC(=O)N1CC(Oc2nc(OC[C@@H]3CCCN3C)nc3c(F)c(-c4ccc(F)c5sc(N)nc45)c(C(F)(F)F)cc23)C1 , which is ≤ 500 nM

Kindly note the recorded IC50 for C=CC(=O)N1CC(Oc2nc(OC[C@@]34CCCN3C[C@H](F)C4)nc3c(F)c(-c4ccc(F)c5sc(N)nc45)c(C(F)(F)F)cc23)C1 , which is > 20000 nM

Kindly note the recorded IC50 for C=CC(=O)N1C[C@@H](F)[C@@H](Oc2nc(OC[C@@]34CCCN3C[C@H](F)C4)nc3cc(-c4ccc(F)c5sc(N)nc45)c(C(F)(F)F)cc23)C1 , which is ≤ 500 nM

Kindly note the recorded IC50 for C=CC(=O)N1CC[C@@H](Oc2nc(OC[C@@]34CCCN3C[C@H](F)C4)nc3c(F)c(-c4ccc(F)c5sc(N)c(C#N)c45)ccc23)[C@@H]1CC , which is > 20000 nM

Kindly note the recorded IC50 for C=CC(=O)N1CC[C@@H](Oc2nc(OC[C@@]34CCCN3C[C@H](F)C4)nc3c(F)c(-c4ccc(F)c5sc(N)c(C#N)c45)c(Cl)cc23)[C@H]1C , which is ≤ 500 nM

Kindly note the recorded IC50 for C=CC(=O)N1CC[C@@H](Oc2nc(OC[C@]34CCCN3C[C@H](OC)C4)nc3c(F)c(-c4ccc(F)c5sc(N)nc45)c(C(F)(F)F)cc23)C1 (single isomer, unassigned) [Compound 31] , which is 500 to 5000 nM

Kindly note the recorded IC50 for C=CC(=O)N1C[C@H](Oc2nc(OC[C@@]34CCCN3C[C@H](F)C4)nc3cc(-c4ccc(F)c5sc(N)c(C#N)c45)c(C(F)(F)F)cc23)[C@@H](F)C1 , which is ≤ 500 nM

Kindly note the recorded IC50 for C=CC(=O)N1CC[C@@H](Oc2nc(OC[C@@]34CCCN3C[C@H](F)C4)nc3c(F)c(-c4ccc(F)c5sc(N)c(C#N)c45)c(Cl)cc23)[C@@H]1C , which is ≤ 500 nM

Kindly note the recorded IC50 for C=CC(=O)N1CC[C@@H](Oc2nc(OC[C@@]34CCCN3C[C@H](F)C4)nc3c(F)c(-c4c(F)cc(F)c5sc(N)nc45)ncc23)C1 , which is 500 to 5000 nM

Kindly note the recorded IC50 for C=CC(=O)N1CC[C@@H](Oc2nc(OC[C@@]34CCCN3C[C@H](F)C4)nc3cc(-c4ccc(F)c5sc(N)c(C#N)c45)c(C(F)(F)F)nc23)[C@H]1C , which is ≤ 500 nM

====

- target: Avi-KRAS G12C (1-169) GppNHp/RAF1 RBD-3×FLAG (52-151) (Homo sapiens, UniProt P01116, G12C)
- Construct: Avi-KRAS G12C (1-169) GppNHp/RAF1 RBD-3×FLAG (52-151)
- measurementDescription: Raf1 RBD-KRAS G12C-GppNHp disruption (protein:protein interaction HTRF assay)
- Format: biochemical
- Description: A protein: protein (PPI) interaction Homogeneous Time Resolved Fluorescence (HTRF) assay was used to determine the effectiveness of compounds of the present disclosure in disrupting KRAS G12C protein and effector (RAF1 or PIK3CA) binding. […] Plates were analyzed on an Envision plate reader using the following setting: Excitation 320 nm, Bandwidth 75 nm; Emission 615 nm, Bandwidth 85 nm; Gain 100%; Flashes 100; Lag 60 μs. […] Data was plotted and analyzed using Prism 8.
pIC50: −log10 of the molar value.
Please provide measured pIC50 for the entries that follow.

Kindly note the recorded pIC50 for C=CC(=O)N1CC[C@@H](Oc2nc(OC[C@@]34CCCN3C[C@H](F)C4)nc3c(C#N)c(-c4ccc(F)c5sc(N)c(C#N)c45)ccc23)[C@H]1C , which is ≥ 6.30

Kindly note the recorded pIC50 for C=CC(=O)N1CC[C@@H](Oc2nc(OC[C@@]34CCCN3C[C@H](F)C4)nc3c(F)c(-c4ccc(F)c5sc(N)c(C#N)c45)ccc23)[C@H]1COC , which is ≥ 6.30

Kindly note the recorded pIC50 for C=CC(=O)N1CC[C@@H](Oc2nc(OC[C@@]34CCCN3C[C@H](F)C4)nc3cc(-c4ccc(F)c5sc(N)c(C#N)c45)c(C(F)(F)F)nc23)C1 , which is ≥ 6.30

Kindly note the recorded pIC50 for C=CC(=O)N1CC[C@@H](Oc2nc(OC[C@@]34CCCN3C[C@H](F)C4)nc3c(F)c(-c4ccc(F)c5sc(N)nc45)c(Cl)cc23)C1 (atropisomer, axis not shown) [Compound 3] , which is ≥ 6.30

Kindly note the recorded pIC50 for C=CC(=O)N1CC[C@@H](Oc2nc(OC[C@@]34CCCN3C[C@H](F)C4)nc3cc(-c4ccc(F)c5sc(N)c(C#N)c45)c(C#N)cc23)[C@H]1C , which is ≥ 6.30

Kindly note the recorded pIC50 for C=CC(=O)N1C[C@H](Oc2nc(OC[C@@]34CCCN3C[C@H](F)C4)nc3cc(-c4ccc(F)c5sc(N)c(C#N)c45)c(C(F)(F)F)nc23)C[C@H]1C [Compound 83] , which is ≥ 6.30

Kindly note the recorded pIC50 for C=CC(=O)N1CCC(Oc2nc(N3CC(N4CC5(CC5)C4)C3)nc3c(F)c(-c4ccc(F)c5sc(N)c(C#N)c45)c(C(F)(F)F)cc23)C1 (centres unmarked) , which is ≥ 6.30

Kindly note the recorded pIC50 for C=CC(=O)N1CC[C@@H](Oc2nc(OC[C@@]34CCCN3C[C@H](F)C4)nc3cc(-c4ccc(F)c5sc(N)c(C#N)c45)c(C#N)cc23)[C@@H]1COC , which is < 4.70

Kindly note the recorded pIC50 for C=CC(=O)N1CC[C@H](Oc2nc(OC[C@@]34CCCN3C[C@H](F)C4)nc3c(F)c(-c4ccc(F)c5sc(N)nc45)c(Cl)cc23)C1 (atropisomer, axis not shown) [Compound 4] , which is < 4.70

Kindly note the recorded pIC50 for C=CC(=O)N1C[C@@H](C)[C@@H](Oc2nc(OC[C@@]34CCCN3C[C@H](F)C4)nc3c(F)c(-c4ccc(F)c5sc(N)nc45)c(C(F)(F)F)cc23)C1 (atropisomer, axis not shown) [Compound 39] , which is 5.30 to 6.30

Kindly note the recorded pIC50 for C=CC(=O)N1C[C@H](Oc2nc(OC[C@@]34CCCN3C[C@H](F)C4)nc3c(F)c(-c4ccc(F)c5sc(N)c(C#N)c45)ccc23)[C@@H](F)C1 , which is ≥ 6.30
